TESTED SYSTEM: Broad substrate specificity ATP-binding cassette transporter ABCG2 (Homo sapiens)
ASSAY OVERVIEW: ABCG2 efflux pump inhibitors, confirmation, single point, IgMXP3 cells, ABCB1 counter-screen paired (AID 1453)
SETUP CONDITIONS: JC-1 efflux, flow cytometry, at 6.6 µM, active compounds read high
Some of the results follow.
Assign met to entries whose inhibition meets or exceeds 20%; assign not met to the rest.

{"columns": ["COMPOUND", "ANSWER LABEL"],
 "data": [
  ["COc1cccc(NC(=O)c2ccc(Cn3cc([N+](=O)[O-])cn3)o2)c1", "met"],
  ["Cc1ccc(-n2c(SCC(=O)Nc3ncc(Cl)cc3Cl)nc3ccccc32)cc1", "met"],
  ["Cc1cccc2cc(CN(Cc3cccs3)C(c3nnnn3C3CCCC3)C(C)C)c(=O)[nH]c12 (stereo not drawn)", "met"],
  ["Cc1c(CCOC(=O)CC23CC4CC(CC(C)(C4)C2)C3)sc[n+]1Cc1ccc([N+](=O)[O-])cc1", "met"],
  ["C=CCn1c(SCCOc2ccc(OC)cc2)nnc1C(NC(=O)c1ccc(OC)cc1)C(C)C (stereo not drawn)", "not met"],
  ["COc1ccc(C)cc1NC(=O)C(Sc1ccccc1)c1ccccc1 (stereo not drawn)", "not met"],
  ["CCOCC(=O)Nc1sc2c(c1C(=O)OCC)CCCC2", "met"]
]}
